I'd be grateful if you could share measured pIC50 for these entries.
molecular target: HCV1b NS5B polymerase delta 21 (Hepatitis C virus genotype 1b, UniProt P26663); construct: purified HCV1b NS5B polymerase delta 21; assay: RNA-Dependent RNA HCV NS5B (Polymerase) Assay and IC50 Determination; format: biochemical
Sequence (P26663 2420-2989): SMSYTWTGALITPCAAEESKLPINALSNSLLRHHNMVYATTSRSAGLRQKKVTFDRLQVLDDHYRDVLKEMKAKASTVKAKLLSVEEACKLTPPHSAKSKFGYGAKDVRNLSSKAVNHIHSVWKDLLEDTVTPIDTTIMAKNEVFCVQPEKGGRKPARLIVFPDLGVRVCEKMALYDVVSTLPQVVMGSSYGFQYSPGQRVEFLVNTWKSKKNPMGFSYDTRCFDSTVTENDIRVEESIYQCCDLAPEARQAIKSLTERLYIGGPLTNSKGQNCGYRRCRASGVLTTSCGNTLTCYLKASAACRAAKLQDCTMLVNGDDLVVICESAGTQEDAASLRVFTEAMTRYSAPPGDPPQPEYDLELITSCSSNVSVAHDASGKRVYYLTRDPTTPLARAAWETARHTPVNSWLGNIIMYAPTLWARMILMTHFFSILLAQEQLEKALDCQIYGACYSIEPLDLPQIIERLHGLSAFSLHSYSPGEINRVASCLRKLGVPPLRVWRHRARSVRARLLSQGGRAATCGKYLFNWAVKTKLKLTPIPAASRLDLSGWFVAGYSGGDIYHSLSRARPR
pIC50: −log10 of the molar value.

Examples with answers:
compound: CCN1CCC(c2cc(-c3ccc(NC(=O)c4cn(C)cn4)cc3)sc2C(=O)O)=C(C2CCC(C)CC2)C1 (stereo not shown)
subject.of.test: HCV1b NS5B polymerase delta 21 (Hepatitis C virus genotype 1b, UniProt P26663)
pIC50: > 5.52

compound: CCN1CCC(c2cc(-c3ccc(NC(=O)c4ccccc4)cc3)sc2C(=O)O)=C(C2CCC(C)CC2)C1 (stereo not shown)
subject.of.test: HCV1b NS5B polymerase delta 21 (Hepatitis C virus genotype 1b, UniProt P26663)
pIC50: 5.00 to 5.52

Could you report pIC50 for every entry in the following list?
1. CCN1CCC(c2cc(-c3cccc(NC(=O)c4cccs4)c3)sc2C(=O)O)=C(C2CCC(C)CC2)C1 (stereo not shown)
2. CN1CCC(c2cc(-c3ccc(NC(=O)c4cscn4)cc3)sc2C(=O)O)=C([C@H]2CC[C@H](C)CC2)C1

1. < 5.00
2. > 5.52
